Assay: In vivo pharmacokinetics in SD rats
Conditions: Sprague-Dawley, rat, in vivo; Intravenous injection - 1 mg/kg; read-out: CL (converted)
Protocol: Compound stock solution preparation: an appropriate amount of solid powder of the compounds were weighed separately, a certain amount of DMSO was added and 20 mg/mL of stock solution was obtained under vortex ultrasound. […] The blood samples were centrifuged at 4° C. for 5 min at 2,000 g to separate the plasma. The plasma samples were analyzed by LC/MS/MS to detect the concentration of each test compound in the plasma samples. […]
recordedMetric: clearance (mL/min/kg)
Provide the reading as a plain figure in mL/min/kg.

| molecule | clearance [mL/min/kg] |
| --- | --- |
| CNC(=O)c1ccc2c(cc1=O)[C@@H](NC(C)=O)CCc1cc3c(c(OC)c1-2)OCO3 [Compound 125] | 28.5 |

We next turn to a different molecule, shown below.
// clearance lookup, molecule = COc1cc2c(c(OC)c1OC)-c1ccc(OC)c(=O)cc1[C@@H](NC(C)=O)CC2 [colchicine, reference compound] , result: 31.8
